testMethodNotes: MDCK permeability
Assay type: in vitro ADME, canine
experimentalContext: dog
measuredAttribute: Papp A→B at 180 min, 10 µM (×10⁻⁶ cm/s)
The reply should be a number in ×10⁻⁶ cm/s, with the unit left off.

Exercise: # lookup: Papp A→B at 180 min, 10 µM of C[C@H]1[C@H](F)C[C@@H](C(=O)NCc2cc(-c3cnc(C(F)(F)F)nc3)ncc2C(F)(F)F)N1S(=O)(=O)c1ccc(F)cc1 [GDC-0334]
Key: 18.9

* * *

assayedTarget: UniProt Q7Z2W7
Sequence (Q7Z2W7 whole entry): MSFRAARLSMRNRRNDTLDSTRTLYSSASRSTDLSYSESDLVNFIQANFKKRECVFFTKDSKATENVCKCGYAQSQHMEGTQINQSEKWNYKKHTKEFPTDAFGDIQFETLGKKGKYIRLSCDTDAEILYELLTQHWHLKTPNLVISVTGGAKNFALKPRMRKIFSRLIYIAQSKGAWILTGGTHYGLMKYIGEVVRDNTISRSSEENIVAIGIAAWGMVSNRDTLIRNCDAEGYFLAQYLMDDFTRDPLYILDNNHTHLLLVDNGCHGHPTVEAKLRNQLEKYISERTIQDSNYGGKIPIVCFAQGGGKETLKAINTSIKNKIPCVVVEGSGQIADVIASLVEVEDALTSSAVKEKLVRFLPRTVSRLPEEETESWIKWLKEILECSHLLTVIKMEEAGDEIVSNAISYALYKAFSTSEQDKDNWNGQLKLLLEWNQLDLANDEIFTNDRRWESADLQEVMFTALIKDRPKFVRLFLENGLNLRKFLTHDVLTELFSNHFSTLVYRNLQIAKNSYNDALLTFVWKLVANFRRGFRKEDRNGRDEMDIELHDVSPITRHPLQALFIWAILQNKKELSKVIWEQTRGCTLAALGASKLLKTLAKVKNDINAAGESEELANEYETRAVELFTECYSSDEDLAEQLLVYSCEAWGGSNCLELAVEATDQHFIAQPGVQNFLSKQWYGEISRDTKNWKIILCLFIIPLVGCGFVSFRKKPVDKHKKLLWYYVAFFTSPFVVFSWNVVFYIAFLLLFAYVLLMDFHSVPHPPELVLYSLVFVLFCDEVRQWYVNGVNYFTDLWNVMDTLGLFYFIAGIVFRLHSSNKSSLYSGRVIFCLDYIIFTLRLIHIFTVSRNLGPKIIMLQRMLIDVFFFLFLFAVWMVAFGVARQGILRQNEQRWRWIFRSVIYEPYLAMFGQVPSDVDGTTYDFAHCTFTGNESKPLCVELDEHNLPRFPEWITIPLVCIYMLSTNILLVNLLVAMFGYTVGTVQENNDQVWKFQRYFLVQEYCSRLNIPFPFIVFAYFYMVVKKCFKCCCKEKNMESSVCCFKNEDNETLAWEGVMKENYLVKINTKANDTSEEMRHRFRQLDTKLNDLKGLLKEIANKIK
testMethodNotes: Ca2+ responses evoked by 50 μM menthol
measuredAttribute: IC50

Exercise: Would you kindly share the measured IC50 for C[C@H]1[C@H](F)C[C@@H](C(=O)NCc2cc(-c3cnc(C(F)(F)F)nc3)ncc2C(F)(F)F)N1S(=O)(=O)c1ccc(F)cc1 [GDC-0334] ?
Key: > 10 µM

* * *

assayedTarget: cynomolgus (cyno) monkey TRPA1 (Macaca fascicularis)
Sequence (A0A2K5VSJ1 26-1144): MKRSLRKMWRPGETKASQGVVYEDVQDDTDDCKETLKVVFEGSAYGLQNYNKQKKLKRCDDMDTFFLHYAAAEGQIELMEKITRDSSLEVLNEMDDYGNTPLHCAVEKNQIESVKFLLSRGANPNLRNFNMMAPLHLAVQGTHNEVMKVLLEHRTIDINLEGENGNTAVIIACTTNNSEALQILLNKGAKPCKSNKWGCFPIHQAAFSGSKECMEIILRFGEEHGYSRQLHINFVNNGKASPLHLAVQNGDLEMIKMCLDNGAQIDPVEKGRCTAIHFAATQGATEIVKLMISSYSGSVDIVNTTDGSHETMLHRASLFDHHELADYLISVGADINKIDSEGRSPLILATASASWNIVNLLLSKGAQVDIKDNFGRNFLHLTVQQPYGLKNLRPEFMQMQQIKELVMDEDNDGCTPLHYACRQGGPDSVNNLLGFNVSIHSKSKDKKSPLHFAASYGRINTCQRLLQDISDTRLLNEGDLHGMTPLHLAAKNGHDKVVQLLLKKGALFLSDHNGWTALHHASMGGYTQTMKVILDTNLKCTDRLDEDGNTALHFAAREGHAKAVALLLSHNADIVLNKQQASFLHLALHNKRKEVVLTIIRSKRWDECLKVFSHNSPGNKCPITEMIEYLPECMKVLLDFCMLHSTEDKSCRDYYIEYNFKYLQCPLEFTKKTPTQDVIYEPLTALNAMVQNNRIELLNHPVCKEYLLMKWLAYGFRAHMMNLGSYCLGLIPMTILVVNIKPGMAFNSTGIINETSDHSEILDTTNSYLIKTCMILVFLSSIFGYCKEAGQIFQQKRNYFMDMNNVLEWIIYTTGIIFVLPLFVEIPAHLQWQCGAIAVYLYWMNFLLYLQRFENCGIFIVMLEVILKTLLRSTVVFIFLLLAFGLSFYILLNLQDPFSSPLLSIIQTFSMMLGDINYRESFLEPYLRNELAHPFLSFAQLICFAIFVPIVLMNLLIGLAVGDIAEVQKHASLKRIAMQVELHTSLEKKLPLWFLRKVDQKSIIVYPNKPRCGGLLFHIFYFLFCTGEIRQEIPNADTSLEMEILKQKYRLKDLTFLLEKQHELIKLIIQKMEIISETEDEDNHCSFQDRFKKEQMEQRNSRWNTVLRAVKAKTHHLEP
testMethodNotes: CHO cell line FLIPR Ca2+ assay, CA-evoked
measuredAttribute: IC50 (nM)
Quick note: give the figure in nM, leave out the unit.

Exercise: What does the record list as IC50 for C[C@H]1[C@H](F)C[C@@H](C(=O)NCc2cc(-c3cnc(C(F)(F)F)nc3)ncc2C(F)(F)F)N1S(=O)(=O)c1ccc(F)cc1 [GDC-0334] ?
Key: 3.6

* * *

assayedTarget: mouse TRPA1 (Mus musculus)
Sequence (Q8BLA8 whole entry): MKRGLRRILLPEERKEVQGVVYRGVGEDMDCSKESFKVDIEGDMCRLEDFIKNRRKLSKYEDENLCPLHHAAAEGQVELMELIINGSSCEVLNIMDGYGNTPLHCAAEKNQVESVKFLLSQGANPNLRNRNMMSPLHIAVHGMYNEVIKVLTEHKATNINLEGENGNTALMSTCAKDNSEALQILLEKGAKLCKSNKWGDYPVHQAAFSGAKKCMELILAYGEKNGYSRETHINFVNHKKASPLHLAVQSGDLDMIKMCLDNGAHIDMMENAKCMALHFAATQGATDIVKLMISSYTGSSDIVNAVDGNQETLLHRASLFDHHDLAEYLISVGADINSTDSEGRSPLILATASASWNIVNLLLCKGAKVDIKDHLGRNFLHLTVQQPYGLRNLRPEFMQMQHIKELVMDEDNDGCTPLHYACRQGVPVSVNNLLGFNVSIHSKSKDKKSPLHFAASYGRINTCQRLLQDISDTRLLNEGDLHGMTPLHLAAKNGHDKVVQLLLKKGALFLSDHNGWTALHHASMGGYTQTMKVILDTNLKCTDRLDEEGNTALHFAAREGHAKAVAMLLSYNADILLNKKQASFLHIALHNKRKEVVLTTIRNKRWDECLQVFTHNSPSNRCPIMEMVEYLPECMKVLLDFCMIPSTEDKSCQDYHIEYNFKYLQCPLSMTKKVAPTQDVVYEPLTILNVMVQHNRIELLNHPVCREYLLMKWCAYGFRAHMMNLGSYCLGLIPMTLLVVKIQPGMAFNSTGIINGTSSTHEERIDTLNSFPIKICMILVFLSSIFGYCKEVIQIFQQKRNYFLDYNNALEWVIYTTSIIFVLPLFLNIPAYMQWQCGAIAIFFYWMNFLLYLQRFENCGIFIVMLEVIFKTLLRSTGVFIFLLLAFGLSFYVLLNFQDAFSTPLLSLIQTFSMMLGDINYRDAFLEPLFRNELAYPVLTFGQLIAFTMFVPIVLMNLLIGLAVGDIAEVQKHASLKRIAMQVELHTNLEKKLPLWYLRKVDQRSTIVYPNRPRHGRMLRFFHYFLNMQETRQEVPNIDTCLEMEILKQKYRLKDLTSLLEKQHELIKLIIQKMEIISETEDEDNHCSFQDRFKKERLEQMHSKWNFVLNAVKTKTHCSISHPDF
testMethodNotes: CHO cell line FLIPR Ca2+ assay, CA-evoked
measuredAttribute: IC50 (nM)
Note: unit nM is implicit; provide only the numeric part.

Exercise: Entry C[C@H]1[C@H](F)C[C@@H](C(=O)NCc2cc(-c3cnc(C(F)(F)F)nc3)ncc2C(F)(F)F)N1S(=O)(=O)c1ccc(F)cc1 : reported IC50 = ?
Key: 2.7

* * *

assayedTarget: guinea pig TRPA1 (Cavia porcellus, UniProt H0VJD1)
testMethodNotes: CHO cell line FLIPR Ca2+ assay, CA-evoked
measuredAttribute: pIC50
By convention, pIC50 is the negative base-10 log of a molar concentration.

Exercise: Please tell me: pIC50 of C[C@H]1[C@H](F)C[C@@H](C(=O)NCc2cc(-c3cnc(C(F)(F)F)nc3)ncc2C(F)(F)F)N1S(=O)(=O)c1ccc(F)cc1 [GDC-0334] , system guinea pig TRPA1 (Cavia porcellus, UniProt H0VJD1)?
Key: 7.95

* * *

assayedTarget: UniProtKB Q9Y210
Sequence (Q9Y210 whole entry): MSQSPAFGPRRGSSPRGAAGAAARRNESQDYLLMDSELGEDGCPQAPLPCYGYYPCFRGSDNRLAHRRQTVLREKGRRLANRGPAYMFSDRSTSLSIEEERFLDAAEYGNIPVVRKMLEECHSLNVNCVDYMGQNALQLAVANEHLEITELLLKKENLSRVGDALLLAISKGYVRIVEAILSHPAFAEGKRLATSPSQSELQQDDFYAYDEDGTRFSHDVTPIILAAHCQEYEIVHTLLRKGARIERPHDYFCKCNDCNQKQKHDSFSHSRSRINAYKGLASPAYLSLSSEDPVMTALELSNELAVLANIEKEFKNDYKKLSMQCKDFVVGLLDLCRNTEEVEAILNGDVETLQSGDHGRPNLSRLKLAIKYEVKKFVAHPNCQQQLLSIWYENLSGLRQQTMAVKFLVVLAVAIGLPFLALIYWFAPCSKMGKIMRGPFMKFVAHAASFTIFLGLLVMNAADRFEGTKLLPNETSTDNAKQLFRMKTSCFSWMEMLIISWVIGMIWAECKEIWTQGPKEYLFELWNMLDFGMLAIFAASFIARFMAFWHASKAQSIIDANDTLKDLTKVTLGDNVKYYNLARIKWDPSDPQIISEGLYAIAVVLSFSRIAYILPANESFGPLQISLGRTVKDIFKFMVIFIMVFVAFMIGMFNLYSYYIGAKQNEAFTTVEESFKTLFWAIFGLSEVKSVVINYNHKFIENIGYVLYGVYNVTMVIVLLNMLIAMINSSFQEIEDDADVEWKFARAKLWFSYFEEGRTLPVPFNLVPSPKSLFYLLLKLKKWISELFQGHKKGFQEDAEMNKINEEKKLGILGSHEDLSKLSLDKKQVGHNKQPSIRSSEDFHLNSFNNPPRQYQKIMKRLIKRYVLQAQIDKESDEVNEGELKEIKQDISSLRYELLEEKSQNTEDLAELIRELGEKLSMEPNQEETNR
testMethodNotes: membrane potential assay using 75 μM carbochol
pIC50: −log10 of the molar value.
measuredAttribute: pIC50

Exercise: GET /values?readout=pIC50&item= C[C@H]1[C@H](F)C[C@@H](C(=O)NCc2cc(-c3cnc(C(F)(F)F)nc3)ncc2C(F)(F)F)N1S(=O)(=O)c1ccc(F)cc1
Key: < 5.00
